Target: T1, Hse1, P38753
T1 sequence (P38753 208-285, looked up): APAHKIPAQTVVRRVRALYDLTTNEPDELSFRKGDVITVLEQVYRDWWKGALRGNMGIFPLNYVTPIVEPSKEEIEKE
Test: SPOT array
Settings: median of control spots 1727
I'd appreciate it if you marked entries criterion met when SPOT intensity is lower than 40 and criterion not met when it is not.

Take a look at these entries with their results.
• MPAPPPPPPPPPGAF = criterion met
• KKEKKPPKIPKKVYT = criterion met

Prompt line: Just wondering, is SPOT intensity of `LFMKGTPEFPKSGFS` below 40?
Response line: criterion met

Prompt line: Just wondering, is SPOT intensity of `FPPKRKPLLRPQRSD` below 40?
Response line: criterion not met

Prompt line: Just wondering, is SPOT intensity of `NQARKPFLLPATELS` below 40?
Response line: criterion met

Prompt line: Just wondering, is SPOT intensity of `MAMRPIPPLPTESEY` below 40?
Response line: criterion met

Prompt line: Just wondering, is SPOT intensity of `NGRRRPKFRVQLSGN` below 40?
Response line: criterion not met

Prompt line: Just wondering, is SPOT intensity of `VAPPPLPNRQLPNLD` below 40?
Response line: criterion met

Prompt line: Just wondering, is SPOT intensity of `PKMLPIPSKPTLFDL` below 40?
Response line: criterion met
